# tgt: HIV-1 integrase (multimerization)
# measurementNotes: HIV-1 integrase multimerization activators, dose response, counter-screen for LEDGF/p75 integration inhibitor project, biochemical, TR-FRET (AID 1053171)
Active and inactive are the calls of the source. How the calls were made is not given here.
The reply should name one outcome from true (1) for active, false (0) for inactive

How was `COc1cc(C)cc(C(=O)O)c1C1=C(O)c2cccc(O)c2C(=O)C1=O` classified in this test?
false (0)

Hi team, can someone confirm the assay call for `O=C1C=C(O)c2c(O)cc(O)c(O)c2C1=O` ?
true (1)

// param item: `O=C1/C(=C\c2ccc(O)c(O)c2)C(c2ccccc2)=NN1c1ccccc1` ; yields the recorded call
true (1)

Hi team, can someone confirm the assay call for `O=c1c(O)c(-c2ccc(O)c(O)c2)oc2cc(O)ccc12` ?
true (1)

* * *

# tgt: HIV-1 integrase (multimerization)
# measurementNotes: HIV-1 integrase multimerization activators, dose response, counter-screen for LEDGF/p75 integration inhibitor project, biochemical, TR-FRET (AID 1053171)
Calls of active or inactive are those of the source. No rule for the calls is given here.
Parameter call: string, one of active, inactive

For `O=c1c(O)c(-c2ccc(O)c(O)c2)oc2cc(O)cc(O)c12` , what call appears in the results of this test?
active

What did this assay record as the result for O=C1c2cc(O)c(O)cc2OC(c2ccc(O)c(O)c2)C1O (stereo not given) ?
inactive

Could you please tell me the result logged for `O=C1C=C(Nc2ccccc2O)c2ccccc2C1=O` in this assay?
inactive

Give the logged outcome of this assay for the following compound: `C[n+]1c2cc(N)ccc2cc2ccc(N)cc21`
inactive

Outcome? `O=[N+]([O-])c1cc(Br)c(O)c(C=Nc2ccc(N3CCOCC3)cc2)c1`
inactive

For `N/C(=N\N=C/c1ccc(-c2ccc(O)c(C(=O)O)c2)o1)N[N+](=O)[O-]` , what call appears in the results of this test?
active

Per the records of this test, what outcome belongs to Cc1c(CC(=O)N2CCN(C(=O)C3COc4ccccc4O3)CC2)c(=O)oc2c(O)c(O)ccc12 (stereo not given) ?
inactive

Per the assay record, what outcome was assigned to `Cc1cc(C(=O)N/N=C/c2ccc(O)c([N+](=O)[O-])c2)c(C)n1-c1ccc(F)cc1` ?
inactive

Outcome? `O=C1NC(=Nc2ccc(O)cc2)S/C1=C\C=C\c1ccco1`
inactive

Could you check what this test reported for `O=C1CCCC(O)=C1N=Nc1ccc(C(=O)O)cc1` ?
active

Please let me know the test result on file for `O=c1cc2c(=O)oc3cc(O)c(O)oc3c2c(O)c1O` .
active

Look up the recorded call for CN(C)c1ccc(O)c2c1CC1CC3[C@@H](N(C)C)C(=O)C(C(N)=O)=C(O)[C@]3(O)C(=O)C1=C2O (stereo not given in full) in this test.
active

Recorded test call requested for `C=C1c2cccc(O)c2C(O)=C2C(=O)[C@]3(O)C(O)=C(C(N)=O)C(=O)[C@@H](N(C)C)[C@@H]3[C@@H](O)[C@H]12`
active

Test call, this compound: CN(C)[C@@H]1C(=O)C(C(N)=O)=C(O)[C@@]2(O)C(=O)C3=C(O)c4c(O)cccc4[C@@](C)(O)C3[C@H](O)C12 (stereo not given in full)
inactive

Which result was noted for this compound in the test: `NC(=O)c1ccc(N=Cc2c(O)n(Cc3ccco3)c(=O)[nH]c2=O)cc1`
inactive

What call does the record list for `NS(=O)(=O)c1ccc(N/N=C/c2ccc(O)c(O)c2O)c([N+](=O)[O-])c1` ?
active

Which result was noted for this compound in the test: `CC1=NN(c2cccc(C(=O)O)c2)C(=O)/C1=C\C=C\c1ccco1`
active

Per the assay record, what outcome was assigned to `O=C1C=C(O)c2[nH]c(=O)ccc2C1=O` ?
active

Tell me the recorded outcome of this test for `O=[N+]([O-])c1ccccc1NC(=S)N/N=C/c1ccc(O)c(O)c1` .
inactive

Could you kindly confirm the outcome this assay logged for CN(C)C1C(=O)C(C(N)=O)=C(O)C2(O)C(=O)C3=C(O)c4c(O)cccc4C(C)(O)C3C(O)C12 (stereo not given) ?
inactive
